QUANTITY_KIND: melting point

COMPOUND	melting point
CCCCCCS(=O)(=O)c1ccccc1C1NC(=O)NC1=O (stereo not given)	188 to 189 °C

Hey, quick one: what's melting point for each of these?
1. CCCCOP(=O)(CCCCCC1(C(=O)NCC(F)(F)F)c2ccccc2-c2ccccc21)OCCCC
2. COc1cc(N)c(SCc2ccccc2)cc1OC
3. CCOC(=O)c1ncn2c1CN=C(Cl)c1cc(OC)ccc1-2
4. CCCC(=O)Nc1n[nH]c2cc(-c3ccc(OCc4ccccc4)cc3)c(-c3ccc(OCc4ccccc4)cc3)cc12
5. COc1ccc(C2(C#N)CCC(=O)CC2)c2c1oc1ccccc12

Completion:
1. 88 to 91 °C
2. 86 to 88 °C
3. 186 °C
4. 140 °C
5. 199 to 202 °C

Hey, quick one: what's melting point for each of these?
1. CC(Oc1ccc(Oc2ccc(Cl)cc2)cc1)C(=O)N1CCCO1 (stereo not given)
2. O=S1(=O)NCNc2c(-c3ccccc3)cc(-c3ccccc3)cc21

Completion:
98 to 100 °C
222 to 225 °C

Hey, quick one: what's melting point for each of these?
1. Nc1nc(-c2ccccc2OCC(F)(F)F)[nH]c(=O)c1N=O
2. Cc1cc2c(-c3cccc(Br)c3)c(CC(=O)Nc3ccc(F)cc3C(F)(F)F)c(=O)oc2cc1Cl
3. COc1cc(OC)c(C(=O)N2CCc3cc(O)ccc3C2)cc1OC
4. COC(=O)C1=C(C)NC(C2CCCCC2)=C(S(=O)(=O)N(C)C)C1c1cccc([N+](=O)[O-])c1 (stereo not given)
5. O=C(c1ccc(C(F)(F)F)cc1O)N1CCN(c2ccc(OC[C@H]3CCn4cc([N+](=O)[O-])nc4O3)cc2)CC1
6. C/C(Cl)=C/CC(C(=O)O)C(=O)O
7. Fc1ccc(C(c2ccc(OCc3ccccc3)cc2)C(c2ccccc2)C(F)(F)F)cc1 (stereo not given)
8. CCc1cc(OCc2ccc(-c3ccccc3C(=O)OC)cc2)c2ccccc2n1

Completion:
1. 210 to 212 °C
2. 222 to 223 °C
3. 180 to 188 °C
4. 185 to 188 °C
5. 217 to 220 °C
6. 95 to 97 °C
7. 111 to 114 °C
8. 132 to 134 °C

Hey, quick one: what's melting point for each of these?
1. COC(=O)[C@H](Cc1cc(Cl)c(OCCCNC(=O)OC(C)(C)C)c(Cl)c1)NC(=O)C(F)(F)F
2. COc1cc(OC)c2c(=O)[nH]c(-c3cccc(-c4ccc(S(C)=O)cc4)n3)nc2c1 (stereo not given)
3. NS(=O)(=O)c1cc(C(=O)O)cc(NCc2ccccc2)c1Sc1ccccc1
4. O=C(O)Cc1ccc(O)c(Cl)c1
5. CCOC(=O)c1cccn1Cc1ccc(Cl)cc1[N+](=O)[O-]
6. CC(Cl)(Cl)C(NC(=O)c1cccc(F)c1)NC(=NC#N)Nc1ccc(Cl)nc1 (stereo not given)
7. CCOC(=O)C1=C(COCCCCO)NC(C)=C(C(=O)OC)C1c1cccc(Cl)c1Cl (stereo not given)
8. CCCCC[N+]([O-])=[N+]([O-])CC

Completion:
1: 90 to 91.5 °C; 2: 281 to 282 °C; 3: 224 to 225 °C; 4: 101 to 104 °C; 5: 104 to 106 °C; 6: 191 to 192 °C; 7: 103 to 104 °C; 8: 184 to 185 °C

# compound O=C(CCl)NCC(CNC(=O)CCl)OC1CCCCO1 (stereo not given) ; its melting point = 100 °C

* * *

Kindly supply the reported melting point values for the records listed here.

In the examples that follow, each entry is paired with its recorded melting point.
COMPOUND	melting point
CCN1C(=O)C(C)(C(=O)O)Oc2ccccc21 (stereo not given)	164 to 168 °C
Cc1nc(-c2ccc(F)cc2)c(COc2ccc(-c3nc4cc(C(=O)O)ccc4n3C3CCCCC3)cc2)s1	196 to 198 °C
CN(C)CCN(C)c1ccc2nnc(-c3cnc([N+](=O)[O-])n3C)n2n1	196 to 198 °C
CCCCCN(CCCCC)C(=O)[C@H]1Cc2c([nH]c3ccccc23)CN1C(=O)Nc1cccc(C)c1	154 to 155 °C
Cc1ccc2c(c1)CN1CCCC1C(=O)N2C (stereo not given)	80 to 82 °C
COC(=O)c1cc(-c2ncnc(C)c2C#N)c(F)cc1Cl	142 to 144 °C
CC(C)(O)Cn1c(CON)nc2c(N)nc3ccccc3c21	178 to 179 °C
COCCc1nc2c(N)nc3ccccc3c2n1CCCCNC(=O)c1ccc2ccccc2n1	78.1 to 79.9 °C

Hey, quick one: what's melting point for each of these?
1. Cc1ncsc1CCSc1ccnc(CSc2nc3ccccc3[nH]2)c1C
2. CCOCc1nc2c(N)nc(C)c(C)c2n1CCCNC(C)=O

Completion:
1: 150 to 152 °C; 2: 162 °C

* * *

Kindly supply the reported melting point values for the records listed here.

In the examples that follow, each entry is paired with its recorded melting point.
COMPOUND	QUANTITY_KIND	RESULT
CCOC(=O)c1cc(=O)n(Cc2ccc(S(=O)(=O)O)cc2S(=O)(=O)O)[nH]1	melting point	> 300 °C
O=Cc1ccc(Oc2ccc3c(c2)OCO3)cc1	melting point	67 to 70 °C

Please turn your attention to the following entry.
# compound CC(C)(C)c1cccc2c1OC(CNC(=O)OCc1ccccc1)C2 (stereo not drawn) ; its melting point = 73 to 76 °C

* * *

Kindly supply the reported melting point values for the records listed here.

In the examples that follow, each entry is paired with its recorded melting point.
COMPOUND	QUANTITY_KIND	RESULT
CCOc1cc2c(cc1OCC)-c1c(C#N)sc(=O)n1CC2	melting point	172 to 174 °C
CS(=O)(=O)N1CCCn2c(nc3c(N)nc4ccccc4c32)C1	melting point	280 °C

Hey, quick one: what's melting point for each of these?
1. O=C(Nc1cccc2ncccc12)C(Cl)(Cl)Cl
2. O=C(c1cccnc1)N1CC2CCc3ccccc3C2=N1 (stereo unspecified)
3. Cc1cc(-c2nnc3cc(C(C)(C)C)c(OCc4ncn(C)n4)nn23)no1
4. CN1CC[C@@H]2CC(=O)c3cc(-c4ccccc4)ccc3[C@@H]2C1 (relative stereo)

Completion:
["145 to 147 °C", "141 to 143 °C", "221 to 223 °C", "> 250 °C"]

* * *

QUANTITY_KIND: melting point

In the examples that follow, each entry is paired with its recorded melting point.
MOLECULE	melting point
CCN(CC)CCCNC(=O)Cn1cnc(-c2ccccc2)c1-c1ccccc1	81 to 83 °C
COc1cc(C(C)C)c2c(c1)S(=O)(=O)N(COC(=O)c1c(C)ccnc1C)C2=O	132 to 134 °C
O=C(O)c1ccc2c(c1)NCc1ccccc1O2	251 to 252 °C

Please turn your attention to the following entry.
# molecule CN(C(CCN1C(=O)c2ccccc2C1=O)C(=O)NO)S(=O)(=O)c1ccc(Oc2cccc(Cl)c2)cc1 (centres undefined) ; its melting point = 81 to 84 °C

* * *

Kindly supply the reported melting point values for the records listed here.

MOLECULE	melting point
O=C1NC(=O)C(c2cn3c4c(cccc24)CC3)C1c1c[nH]c2ccccc12 (stereo unspecified)	144 to 148 °C

Hey, quick one: what's melting point for each of these?
1. O=C(O)C1=Cc2cc(CO)ccc2OC1C(F)(F)F (stereo unspecified)
2. CC(=O)N1N=C(c2ccncc2)OC1c1c(F)cccc1F (stereo unspecified)
3. NC(=O)COCCN1CCN2c3ccccc3Cc3ccccc3C2C1 (stereo unspecified)
4. Cn1cnc2nc(-c3ccc(Br)cc3)nn2c1=S
5. COc1ccc(NC(=S)NC(NC(=O)c2ccc(C)cc2)C(F)(F)F)cc1 (stereo unspecified)
6. CCc1noc(-c2cn(-c3ccccc3OCc3ccccc3)cn2)n1

Completion:
1. 178 to 181 °C
2. 119 to 121 °C
3. 66 to 68 °C
4. > 300 °C
5. 193 to 194 °C
6. 106 °C

Hey, quick one: what's melting point for each of these?
1. CCCCc1cc(O)cc(=O)o1
2. NC(=O)C1CCN(c2c(Br)cncc2-c2ccccc2)CC1

Completion:
1. 110 to 111 °C
2. 220 to 222 °C

Hey, quick one: what's melting point for each of these?
1. CC(C(=O)O)c1ccc2c(c1)C(=O)Cc1cc([N+](=O)[O-])ccc1S2 (stereo unspecified)
2. CC1=C(C)C(=O)N(CCN(C)C)C1=O
3. CC(C)(C)OC(=O)C(=CC1C(C(=O)O)C1(C)C)OC(C)(C)C (stereo unspecified)
4. CCC(=CC(CNC(=O)c1ccc(C)nc1)=NO)C(C)[N+](=O)[O-] (stereo unspecified)
5. Cc1nc2sccn2c1C1=NNC(=O)CO1
6. CC(C)(C)OC(=O)NC1CCc2cc(C(=O)O)ccc2C1 (stereo unspecified)
7. Cc1ccc(C)c(-c2cc(CO)ccc2CO)c1

Completion:
1: 210 to 211 °C; 2: 9 °C; 3: 85 °C; 4: 150 to 151 °C; 5: 274 to 275 °C; 6: 210 to 213 °C; 7: 145 to 148 °C

Hey, quick one: what's melting point for each of these?
1. CNC(=O)c1cc2c(Oc3ccc(COCCOC)cc3)cncc2s1
2. Cc1ccc(S(=O)(=O)NCCCCOc2ccc(-n3ccnc3)cc2)cc1

Completion:
1: 133 to 134 °C; 2: 96 to 98 °C

Hey, quick one: what's melting point for each of these?
1. OCc1ccnc(F)c1
2. CC1(CCCN)NC(=O)NC1=O (stereo unspecified)
3. Nc1nc(NCC(O)(c2ccccc2)c2ccccc2)c2ncn(C3OC(CO)C(O)C3O)c2n1 (stereo unspecified)

Completion:
["61 to 63 °C", "183 to 185 °C", "138 to 140 °C"]
